Source of measurements: patent US11162951B2

# measurement.target: FAST (variant of the photoactive yellow protein (PYP), SEQ ID NO: 3) (Halorhodospira halophila, UniProt P16113, C69G/D97P/F96I/M100R/Q99S/T101G/T95M/Y94W/Y98T)
# Construct: His tag; made in house; host or cells: Rosetta(DE3)pLysS E. coli
# Sequence (P16113 whole entry C69G/Y94W/T95M/F96I/D97P/Y98T/Q99S/M100R/T101G): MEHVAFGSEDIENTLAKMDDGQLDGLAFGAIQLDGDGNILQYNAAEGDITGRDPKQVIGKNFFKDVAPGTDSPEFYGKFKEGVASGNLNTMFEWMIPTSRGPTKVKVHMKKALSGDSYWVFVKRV
# assay.remarks: Physico-chemical (absorption/fluorescence) properties of FAST:fluorogen complexes
# Assay type: physicochemical
# test.settings: FAST:fluorogen complex in PBS pH 7.4
endpoint.name: λabs, wavelength of maximal absorption
Note: a bare number is incomplete; add the unit.

IN: Query: λabs, wavelength of maximal absorption; subject: COc1cc(/C=C2\SC(=S)N(CC(=O)O)C2=O)cc(OC)c1O [HBRAA-3,5DOM]
OUT: 532 nm

IN: What does the record list as λabs, wavelength of maximal absorption for Cc1cc(/C=C2\SC(=S)N(CC(=O)O)C2=O)cc(C)c1O [HBRAA-3,5DM] ?
OUT: 522 nm

IN: # get_value(readout='λabs, wavelength of maximal absorption', item= O=C1NC(=S)S/C1=C\c1ccc(O)cc1 [HBR, 4-hydroxybenzylidene rhodanine, reference compound] )
OUT: 467 nm

IN: // lookup λabs, wavelength of maximal absorption for CCOc1cc(/C=C2\SC(=S)N(CC(=O)O)C2=O)ccc1O [HBRAA-3OE]
OUT: 525 nm

IN: Given the compound Cc1cc(/C=C2\SC(=S)N(CC(=O)O)C2=O)ccc1O [HBRAA-3M] , what is its reported λabs, wavelength of maximal absorption?
OUT: 502 nm

IN: Report λabs, wavelength of maximal absorption for O=C(O)CN1C(=O)/C(=C/c2ccc(O)cc2)SC1=S [HBRAA] please.
OUT: 488 nm

IN: Report λabs, wavelength of maximal absorption for COc1cc(O)ccc1/C=C1\SC(=S)N(CC(=O)O)C1=O [HBRAA-2OM] please.
OUT: 497 nm

IN: State the recorded λabs, wavelength of maximal absorption for this entry: Cc1cc(/C=C2\SC(=S)N(CC(=O)O)C2=O)c(C)cc1O [HBRAA-2,5DM]
OUT: 519 nm

IN: Give its λabs, wavelength of maximal absorption value. Item: CCc1cc(/C=C2\SC(=S)N(CC(=O)O)C2=O)ccc1O [HBRAA-3E]
OUT: 505 nm

IN: Param item = COc1cc(/C=C2\SC(=S)N(CC(=O)O)C2=O)ccc1O [HBRAA-3OM] ; retrieve measured λabs, wavelength of maximal absorption.
OUT: 520 nm

----------
# measurement.target: FAST (variant of the photoactive yellow protein (PYP), SEQ ID NO: 3) (Halorhodospira halophila, UniProt P16113, C69G/D97P/F96I/M100R/Q99S/T101G/T95M/Y94W/Y98T)
# Construct: His tag; made in house; host or cells: Rosetta(DE3)pLysS E. coli
# assay.remarks: Physico-chemical (absorption/fluorescence) properties of FAST:fluorogen complexes
# Format: physicochemical
# test.settings: FAST:fluorogen complex in PBS pH 7.4
endpoint.name: λem, wavelength of maximal emission (nm)
Numeric answer only, unit nm assumed.

IN: # lookup: λem, wavelength of maximal emission of Cc1cc(/C=C2\SC(=S)N(CC(=O)O)C2=O)ccc1O
OUT: 557

IN: What value of λem, wavelength of maximal emission has been reported for the following molecule? O=C(O)CN1C(=O)/C(=C/c2ccc(O)cc2)SC1=S
OUT: 555

IN: I am curious: what λem, wavelength of maximal emission value has been reported for O=C1NC(=S)S/C1=C\c1ccc(O)cc1 [HBR, 4-hydroxybenzylidene rhodanine, reference compound] ?
OUT: 527

IN: What λem, wavelength of maximal emission value was documented for this molecule, COc1cc(O)ccc1/C=C1\SC(=S)N(CC(=O)O)C1=O ?
OUT: 537

IN: Reported λem, wavelength of maximal emission, molecule CCOc1cc(/C=C2\SC(=S)N(CC(=O)O)C2=O)ccc1O : ____
OUT: 575

IN: Please give the measured λem, wavelength of maximal emission for this molecule: CCc1cc(/C=C2\SC(=S)N(CC(=O)O)C2=O)ccc1O
OUT: 559

IN: Reported λem, wavelength of maximal emission for Cc1cc(/C=C2\SC(=S)N(CC(=O)O)C2=O)c(C)cc1O : what is it?
OUT: 566

IN: What does the data say about its λem, wavelength of maximal emission? Entry: COc1cc(/C=C2\SC(=S)N(CC(=O)O)C2=O)ccc1O
OUT: 572

IN: // lookup λem, wavelength of maximal emission for Cc1cc(/C=C2\SC(=S)N(CC(=O)O)C2=O)cc(C)c1O
OUT: 571

IN: Bench note: what λem, wavelength of maximal emission did COc1cc(/C=C2\SC(=S)N(CC(=O)O)C2=O)cc(OC)c1O show?
OUT: 606

----------
# measurement.target: FAST (variant of the photoactive yellow protein (PYP), SEQ ID NO: 3) (Halorhodospira halophila, UniProt P16113, C69G/D97P/F96I/M100R/Q99S/T101G/T95M/Y94W/Y98T)
# Construct: His tag; made in house; host or cells: Rosetta(DE3)pLysS E. coli
# assay.remarks: Physico-chemical (absorption/fluorescence) properties of FAST:fluorogen complexes
# Format: physicochemical
# test.settings: FAST:fluorogen complex in PBS pH 7.4
endpoint.name: ϕ, fluorescence quantum yield (%)
Numeric only. Scale: %

IN: Bench note: what ϕ, fluorescence quantum yield did COc1cc(O)ccc1/C=C1\SC(=S)N(CC(=O)O)C1=O show?
OUT: 5

IN: Name the recorded ϕ, fluorescence quantum yield for CCc1cc(/C=C2\SC(=S)N(CC(=O)O)C2=O)ccc1O .
OUT: 8

IN: Consider the compound COc1cc(/C=C2\SC(=S)N(CC(=O)O)C2=O)ccc1O and give its measured ϕ, fluorescence quantum yield.
OUT: 2

IN: For the compound Cc1cc(/C=C2\SC(=S)N(CC(=O)O)C2=O)c(C)cc1O , what ϕ, fluorescence quantum yield is on record?
OUT: 5

IN: Field request: ϕ, fluorescence quantum yield | item: Cc1cc(/C=C2\SC(=S)N(CC(=O)O)C2=O)cc(C)c1O
OUT: 4
